- targetUnderTest: Cathepsin L (Homo sapiens, UniProt Q6LAF7)
- Sequence (Q6LAF7 whole entry): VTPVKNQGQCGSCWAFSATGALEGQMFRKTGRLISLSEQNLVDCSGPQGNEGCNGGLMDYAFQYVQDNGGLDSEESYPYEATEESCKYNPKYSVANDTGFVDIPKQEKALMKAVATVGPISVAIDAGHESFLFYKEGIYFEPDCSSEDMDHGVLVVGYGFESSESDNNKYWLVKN
Binary label based on Ki with cut-off 100 nM: below gives yes, not below gives no.

| molecule | class |
| --- | --- |
| CC(NC(=O)[C@H](Cc1ccccc1)NC(=O)c1ccc2ccccc2n1)C(=O)CNC(=O)Cc1cccc(-c2ccccn2)c1 (stereo partly drawn) [Cathepsin Inhibitor, Column 5 Row 2] | no |
| CC(C)C[C@H](NC(=O)c1ccc2ncccc2c1)C(=O)NC(C)C(=O)CNC(=O)Cc1cccc(-c2ccccn2)c1 (stereo partly drawn) [Cathepsin Inhibitor, Column 4 Row 1] | no |
| CC(C)C[C@H](NC(=O)c1cc2ccccc2s1)C(=O)NC(C)C(=O)CNC(=O)Cc1cccc(-c2ccccn2)c1 (stereo partly drawn) [Cathepsin Inhibitor, Column 6 Row 1] | yes |
| CC(NC(=O)[C@H](Cc1ccccc1)NC(=O)c1ccc2ncccc2c1)C(=O)CNC(=O)Cc1cccc(-c2ccccn2)c1 (stereo partly drawn) [Cathepsin Inhibitor, Column 4 Row 2] | yes |
| COc1ccc(C(=O)N[C@@H](Cc2ccccc2)C(=O)NC(C)C(=O)CNC(=O)Cc2cccc(-c3ccccn3)c2)cc1OC (stereo partly drawn) [Cathepsin Inhibitor, Column 3 Row 2] | yes |
| COc1ccc(C(=O)N[C@@H](CC(C)C)C(=O)NC(C)C(=O)CNC(=O)Cc2cccc(-c3ccccn3)c2)cc1OC (stereo partly drawn) [Cathepsin Inhibitor, Column 3 Row 1] | no |
| CC(=O)N[C@@H](CC(C)C)C(=O)NC(C)C(=O)CNC(=O)Cc1cccc(-c2ccccn2)c1 (stereo partly drawn) [Cathepsin Inhibitor, Column 1 Row 1] | no |
| CC(C)C[C@H](NC(=O)c1ccc(C(F)(F)F)cc1)C(=O)NC(C)C(=O)CNC(=O)Cc1cccc(-c2ccccn2)c1 (stereo partly drawn) [Cathepsin Inhibitor, Column 2 Row 1] | no |
| CC(C)C[C@H](NC(=O)c1ccc2ccccc2n1)C(=O)NC(C)C(=O)CNC(=O)Cc1cccc(-c2ccccn2)c1 (stereo partly drawn) [Cathepsin Inhibitor, Column 5 Row 1] | no |
| CC(=O)N[C@@H](Cc1ccccc1)C(=O)NC(C)C(=O)CNC(=O)Cc1cccc(-c2ccccn2)c1 (stereo partly drawn) [Cathepsin Inhibitor, Column 1 Row 2] | no |
| CC(NC(=O)[C@@H](NC(=O)c1ccc2ncccc2c1)C(C)C)C(=O)CNC(=O)Cc1cccc(-c2ccccn2)c1 (stereo partly drawn) [Cathepsin Inhibitor, Column 4 Row 3] | no |
| CC(NC(=O)[C@@H](NC(=O)c1ccc2ccccc2n1)C(C)C)C(=O)CNC(=O)Cc1cccc(-c2ccccn2)c1 (stereo partly drawn) [Cathepsin Inhibitor, Column 5 Row 3] | no |
| CC(NC(=O)[C@@H](NC(=O)c1ccc(C(F)(F)F)cc1)C(C)C)C(=O)CNC(=O)Cc1cccc(-c2ccccn2)c1 (stereo partly drawn) [Cathepsin Inhibitor, Column 2 Row 3] | no |
